This section presents compounds with their documented IC50 values.
Molecular target: Monoacylglycerol Lipase (MAGL) (Homo sapiens (Human))
Experiment: MAGL inhibition potency (IC50) assay with 4NPA substrate
Format: biochemical
Details: Method 4: Cayman Chemical MAGL enzyme, 15 nM; read-out: MAGL Potency (Detection Method)
measured.metric: IC50

compound: CCOc1cc(F)ccc1C(=O)N1CC2(CC(C(=O)N(CC)c3ccccc3C)C2)C1 [Compound 203]
target.entity: Monoacylglycerol Lipase (MAGL) (Homo sapiens (Human))
measurement: 150 to 500 nM
//
compound: CCOc1cc(F)ccc1C(=O)N1CC2(CC(C(=O)N(C)c3ccccc3C(C)C)C2)C1 [Compound 205]
target.entity: Monoacylglycerol Lipase (MAGL) (Homo sapiens (Human))
measurement: 500 to 1000 nM
//
compound: CCOc1cc(F)ccc1C(=O)N1CC2(CC(C(=O)N(C)c3ccccc3Cl)C2)C1 [Compound 206]
target.entity: Monoacylglycerol Lipase (MAGL) (Homo sapiens (Human))
measurement: 1000 to 5100 nM

###

Molecular target: Monoacylglycerol Lipase (MAGL) (Homo sapiens (Human))
Assay: MAGL inhibition potency (IC50) assay with 4NPA substrate
Assay type: biochemical
Details: Methods 1, 2; read-out: MAGL Potency (Detection Method)

query.smiles: Cc1cc(C2CC3(C2)CN(C(=O)c2cccc(O)c2)C3)n(-c2ccccc2C)n1
IC50: 50 to 150 nM
//
query.smiles: Cc1cc(C2CC3(C2)CN(C(=O)c2cc(O)ccc2C#N)C3)n(-c2ccccc2C)n1
IC50: < 50 nM

###

Molecular target: Monoacylglycerol Lipase (MAGL) (Homo sapiens (Human), UniProt Q99685)
Sequence (Q99685 2-303): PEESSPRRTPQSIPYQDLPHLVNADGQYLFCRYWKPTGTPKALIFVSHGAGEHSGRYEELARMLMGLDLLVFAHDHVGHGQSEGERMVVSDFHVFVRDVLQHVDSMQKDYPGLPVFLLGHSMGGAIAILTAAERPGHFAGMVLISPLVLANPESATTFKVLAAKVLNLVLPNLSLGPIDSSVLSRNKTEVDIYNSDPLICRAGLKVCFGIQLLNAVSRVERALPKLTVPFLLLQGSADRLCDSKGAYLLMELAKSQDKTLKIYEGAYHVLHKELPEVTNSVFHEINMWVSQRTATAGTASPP
Assay: MAGL inhibition potency (IC50) assay with 4NPA substrate
Assay type: biochemical
Conditions: Method 11: Reaction Biology MAGL enzyme, 25 nM (name: Conc 20); read-out: Potency (MAGL inhibition)
pIC50: −log10 of the molar value.

query.smiles: Cc1cc(-c2cc(F)ccc2C)n(C2CC3(C2)CN(C(=O)c2ccc(F)cc2OC(F)(F)F)C3)n1
target.entity: Monoacylglycerol Lipase (MAGL) (Homo sapiens (Human), UniProt Q99685)
pIC50: < 5.00

###

Target: Monoacylglycerol Lipase (MAGL) (Homo sapiens (Human), UniProt Q99685)
Test: MAGL inhibition potency (IC50) assay with 4NPA substrate
Assay type: biochemical
Conditions: Method 13: Reaction Biology MAGL enzyme, 12 nM; read-out: MAGL Potency (Detection Method)
pIC50: −log10 of the molar value.

compound: Cc1cn(C2CC3(C2)CN(C(=O)c2cc(O)ccc2F)C3)nc1-c1cc(F)ccc1F [Compound 477]
pIC50: > 7.30
//
compound: Cc1cnn(C2CC3(C2)CN(C(=O)c2cc(O)ccc2F)C3)c1-c1cc(F)ccc1F (single isomer, unassigned) [Compound 476]
pIC50: 6.82 to 7.30
//
compound: O=C(c1cc(O)ccc1F)N1CC2(CC(n3nc(C(F)(F)F)cc3-c3ccccc3C(F)(F)F)C2)C1 [Compound 487]
pIC50: 6.30 to 6.82

###

Target: Monoacylglycerol Lipase (MAGL) (Homo sapiens (Human))
Assay: MAGL inhibition potency (IC50) assay with 4NPA substrate
Assay type: biochemical
Conditions: read-out: Potency (MAGL inhibition)
measured.metric: IC50

query.smiles: Cc1cc(C2CC3(C2)CN(Cc2cc(O)ccc2F)C3)n(-c2ccccc2C)n1
measured.metric: IC50
measurement: > 10 µM

###

Molecular target: Monoacylglycerol Lipase (MAGL) (Homo sapiens (Human))
Assay: MAGL inhibition potency (IC50) assay with 4NPA substrate
Assay type: biochemical
Details: Methods 1, 2, 3; read-out: MAGL Potency (Detection Method)
Procedure: The potency of certain compounds for inhibiting MAGL were obtained using the following assays. […] MAGL hydrolyzes 4-nitrophenylacetate resulting in a yellow product, 4-nitrophenol, with an absorbance of 405-412 nm. MAGL Inhibition was measured by the following assay. Monoacylglycerol Lipase (MAGL) inhibition was measured using recombinant MAGL enzyme (aa 2-303 RBC, internal preparation) and the substrate 4-Nitrophenyl acetate (4NPA) (Sigma-Aldrich, N8130). […]
pIC50: −log10 of the molar value.
measured.metric: pIC50

compound: Cc1cc(C2CC3(C2)CN(C(=O)c2cc(O)c(F)cc2F)C3)n(-c2ccccc2C)n1 [Compound 126]
measured.metric: pIC50
measurement: > 7.30

###

Test: Pharmacokinetic study of compounds in mice (brain exposure)
Format: in vivo, male C57BL/6 mice
Details: male, C57BL/6, mouse, oral, 30 mg/kg, Protocol A

compound: Cc1cc(C2CC3(C2)CN(C(=O)c2cc(O)ccc2F)C3)n(-c2ccccc2C)n1 [Compound 74]
AUC(0-t) (ng·h/mL): 117

###

Target: Monoacylglycerol Lipase (MAGL) (Homo sapiens (Human), UniProt Q99685)
Test: MAGL inhibition potency (IC50) assay with 4NPA substrate
Type: biochemical
Settings: Method 12: Reaction Biology MAGL enzyme, 15 nM; read-out: MAGL Potency (Detection Method)

compound: O=C(c1cc(O)ccc1F)N1CC2(CC(n3ccc(-c4ccccc4C(F)(F)F)n3)C2)C1 [Compound 525]
IC50: < 50 nM
//
compound: Cc1ccc(F)c(-c2nn(C3CC4(C3)CN(C(=O)c3cc(O)ccc3F)C4)cc2C(F)(F)F)c1 [Compound 475]
IC50: < 50 nM
//
compound: O=C(c1cc(O)ccc1F)N1CC2(CC(n3cc(C4CC4)c(-c4ccccc4C(F)(F)F)n3)C2)C1 [Compound 488]
IC50: < 50 nM
//
compound: O=C(c1cc(O)ccc1F)N1CC2(CC(n3cc(C4CC4)c(-c4ccccc4F)n3)C2)C1 [Compound 493]
IC50: < 50 nM
